Biological target: DLG1_1, Q12959
Assay: holdup assay
Parameters: key: below the threshold = too weak to quantify, mostly under pKd 3.1 to 4
Conditions: plain residues with an end cap or a label only (N-terminal biotin on a linker: ado-ado)
assayReadout: pKd

[[record]]
binder = "PDSYHRRDFW [U2AF2, P26368]"
assayreadout = "pKd"
assayresult = "below the threshold"

[[record]]
binder = "KEKASTETEC [TRPM1, Q7Z4N2]"
assayreadout = "pKd"
assayresult = 3.96

[[record]]
binder = "HLSTRQGTCV [ATRNL1, Q5VV63]"
assayreadout = "pKd"
assayresult = 4.18

[[record]]
binder = "KPDKQEEFYA [SDC3, O75056]"
assayreadout = "pKd"
assayresult = "below the threshold"

[[record]]
binder = "TKDKVQETQI [LRRC4, Q9HBW1]"
assayreadout = "pKd"
assayresult = 4.42

[[record]]
binder = "SSSVNVSSNL [CXCR1, P25024]"
assayreadout = "pKd"
assayresult = "below the threshold"

[[record]]
binder = "KKTPVSRSHL [SLC22A3, O75751]"
assayreadout = "pKd"
assayresult = "below the threshold"

[[record]]
binder = "PAALPESTHM [SLC9A3, P48764]"
assayreadout = "pKd"
assayresult = "below the threshold"

